Measured values drawn from the supplement of paper PMC11451515 for this set.

test system: NOMO1; assay: cell viability relative to DMSO control; higher = less cytotoxic; details: RPMI 5 mM glucose + 10% dialyzed FBS; 48 h; 0.569 µM
quantity name: cell viability (%)
Numbers only, in %.

Here is how some molecules turned out for cell viability.
COc1cc(O)c2c(c1)C(=O)c1cc(C)cc(O)c1C2=O    109
Nc1nc(Cl)nc2c1ncn2[C@@H]1O[C@H](CO)[C@@H](O)[C@@H]1F    19.9
COC1=CC=C2/C3=N/CCN3\C(=N/C2=C1OC)NC(=O)C4=CC=CN=C4    103
COc1cccc2c1[C@]13CCN(CC4CC4)[C@H](C2)[C@]1(OC)CCC(=O)C3    109
OC[C@H]1O[C@@H](Oc2cc(O)cc(/C=C/c3ccc(O)cc3)c2)[C@H](O)[C@@H](O)[C@@H]1O    103

Please give cell viability, item by item, for the list that follows.
1. Cc1c[nH]c(-c2cnc(NCCNc3ccc(C#N)cn3)nc2-c2ccc(Cl)cc2Cl)n1
2. CC[C@]1(O)C[C@@H]2CN(CCc3c([nH]c4ccccc34)[C@@](C(=O)OC)(c3cc4c(cc3OC)N(C)[C@H]3[C@@](O)(C(N)=O)[C@H](O)[C@]5(CC)C=CCN6CC[C@]43[C@@H]65)C2)C1
3. Cc1ncc([N+](=O)[O-])n1CC(C)O (stereo not drawn)

Result:
[85.9, 24.6, 110]
